Test system: 786-0
Assay: NCI tumour cell line growth inhibition, 48 h
Calls of active or inactive are those of the source. Cut-off read from the data, not from the text of the source: active = GI50 up to about 1.1 µM and inactive = higher.
property.label: GI50

[[record]]
compound = "CCN(C(=O)N[C@H](C(=O)N[C@@H](CSC)C(=O)N[C@@H](C)C(=O)OC)C(C)C)c1ccccc1"
assay_value = "17.2 µM (inactive)"

[[record]]
compound = "O=C1NNC2NC(=O)C3(NN2C1=O)c1ccccc1-c1ccccc13 (stereo unspecified)"
assay_value = "> 100 µM (inactive)"

[[record]]
compound = "COC(=O)c1ccccc1C1=C([N+](=O)[O-])C(c2ccccc2)C(C#N)=C(N)O1 (stereo unspecified)"
assay_value = "35.6 µM (inactive)"

[[record]]
compound = "Cc1ccc(-c2c(N)nc(NC#N)nc2CCC(=O)Nc2ccccc2[N+](=O)[O-])cc1"
assay_value = "> 100 µM (inactive)"

[[record]]
compound = "O=C(O)CCC1COc2ccccc2O1 (stereo unspecified)"
assay_value = "> 10 µM (inactive)"

[[record]]
compound = "Cc1nc2c(nc1C)C(=O)c1ccccc1C2=O"
assay_value = "8.38 µM (inactive)"

[[record]]
compound = "N#CN1C2CCC1CC(=O)C2"
assay_value = "> 100 µM (inactive)"

[[record]]
compound = "COc1cc2c3cc1Oc1c(O)c(OC)cc4c1[C@H](Cc1ccc(cc1)Oc1cc(ccc1O)C[C@H]3N(C)CC2)N(C)CC4"
assay_value = "6.52 µM (inactive)"

[[record]]
compound = "Nc1nc(Cl)c2ncn(Cc3cccc(CCl)c3)c2n1"
assay_value = "5.37 µM (inactive)"

[[record]]
compound = "CC12CCCCC1(C)C2Sc1ccccc1 (stereo unspecified)"
assay_value = "44.8 µM (inactive)"

[[record]]
compound = "CCOC(=O)/C(=C\\c1c(C)[nH]c2ccccc12)P(=O)(OCC)OCC"
assay_value = "> 100 µM (inactive)"

